Every entry's value here was drawn from patent US20180267067A1.

ASSAY_INFO: DON plasma and brain concentrations in mice after i.p. administration (LC-MS after acidified butanol derivatization)
Type: in vivo
ASSAY_SETUP: male, C57BL/6, mouse, plasma, ip, 0.6 mg/kg i.p., 1 h after administration, ±S.E.M.
QUANTITY_KIND: concentration at 1 h (nM)
Quick reminder: number only, in nM, skip the unit.

Query :: Supply reported concentration at 1 h belonging to this molecule: "[N-]=[N+]=CC(=O)CC[C@H](N)C(=O)O"
Result :: 1700

---

ASSAY_INFO: DON plasma and brain concentrations in mice after i.p. administration (LC-MS after acidified butanol derivatization)
Assay type: in vivo
ASSAY_SETUP: male, C57BL/6, mouse, brain/plasma, ip, 0.6 mg/kg i.p., 1 h, read-out: brain to plasma ratio
QUANTITY_KIND: Kp at 1 h

Query :: Please report the measured Kp at 1 h for [N-]=[N+]=CC(=O)CC[C@H](N)C(=O)O [DON, 6-Diazo-5-oxo-L-norleucine]
Result :: ~0.1
